# Target Or System: PDE4Bcat (Homo sapiens, UniProt Q07343)
# Sequence (Q07343 330-659 limits assumed): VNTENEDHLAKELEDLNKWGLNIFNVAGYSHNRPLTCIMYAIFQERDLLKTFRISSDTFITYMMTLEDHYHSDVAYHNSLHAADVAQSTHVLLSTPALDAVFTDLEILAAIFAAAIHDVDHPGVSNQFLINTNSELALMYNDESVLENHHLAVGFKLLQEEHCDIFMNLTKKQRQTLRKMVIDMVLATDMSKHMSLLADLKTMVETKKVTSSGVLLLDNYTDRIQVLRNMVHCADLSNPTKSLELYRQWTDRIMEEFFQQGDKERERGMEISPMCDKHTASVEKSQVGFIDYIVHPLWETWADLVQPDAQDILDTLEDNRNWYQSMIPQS
# Procedure Text: Phosphodiesterase inhibitory activity, recombinant PDE4Bcat, [3H]cAMP
# Assay Setup: 30° C. 20 minutes, read-out: IC50 (μmol/L) PDE4
Property Measured: IC50

Example cases with answers are listed next.
Compound	IC50
COc1ccc(C2=NN(CCCCOc3ccc(C4=NNC(=O)CC4C)cc3F)C(=O)C2(C)C)c2cccnc12 (stereo not shown) [Example 215]	0.01 to 0.1 µmol/L
COc1ccc(C2=NN(CCCCOc3ccc(C4=NNC(=O)C4(C)C)c(F)c3F)C(=O)C2(C)C)c2cc(C(F)(F)F)sc12 [Example 223]	0.01 to 0.1 µmol/L
CCc1ccc2c(C3=NN(CCCCOc4ccc(C5=NNC(=O)CC5C)c(F)c4F)C(=O)C3(C)C)ccc(OC)c2n1 (stereo not shown) [Example 209]	0.01 to 0.1 µmol/L
COc1ccc(C2=NN(CCCCOc3ccc(C4=NNC(=O)CC4C)c(F)c3F)C(=O)C2(C)C)c2cc(C(F)(F)F)oc12 (stereo not shown) [Example 218]	< 0.01 µmol/L
CCc1cc2c(C3=NN(CCCCOc4ccc(C5=NNC(=O)C5(C)C)c(F)c4F)C(=O)C3(C)C)ccc(OC)n2c1 [Example 233]	0.1 to 1 µmol/L
CCc1ccc2c(C3=NN(CCCCOc4ccc(C5=NNC(=O)C5(C)C)cc4OC)C(=O)C3(C)C)ccc(OC)c2n1 [Example 204]	0.1 to 1 µmol/L

Next compound, IC50 to be filled in.
Tell me the measured IC50 of CCc1ccc2c(C3=NN(CCCOc4ccc(C5=NNC(=O)CC5C)c(F)c4F)C(=O)C3(C)C)ccc(OC)c2n1 (stereo not shown) [Example 241] , please. 0.1 to 1 µmol/L

----------
# Target Or System: PDE3A catalytic domain (PDE3Acat) (Homo sapiens, UniProt Q14432)
# Construct: isolate the cDNA of a PDE3A catalytic domain
# Sequence (Q14432 674-1093 limits assumed): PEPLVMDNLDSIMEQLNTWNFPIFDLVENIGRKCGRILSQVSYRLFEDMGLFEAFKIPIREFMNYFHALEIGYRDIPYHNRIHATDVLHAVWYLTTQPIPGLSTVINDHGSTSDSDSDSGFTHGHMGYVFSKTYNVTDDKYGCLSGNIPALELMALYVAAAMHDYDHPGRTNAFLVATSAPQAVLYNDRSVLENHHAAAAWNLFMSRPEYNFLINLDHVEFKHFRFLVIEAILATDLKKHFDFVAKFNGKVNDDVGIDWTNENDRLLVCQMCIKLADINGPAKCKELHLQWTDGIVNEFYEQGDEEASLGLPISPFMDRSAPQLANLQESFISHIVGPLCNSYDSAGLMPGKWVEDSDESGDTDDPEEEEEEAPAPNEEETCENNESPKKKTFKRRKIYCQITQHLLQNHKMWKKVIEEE
# Procedure Text: Phosphodiesterase inhibitory activity, recombinant PDE3Acat, [3H]cAMP
# Assay Setup: 30° C. 20 minutes, read-out: IC50 (μmol/L) PDE3
pIC50: −log10 of the molar value.
Property Measured: pIC50

Example cases with answers are listed next.
Molecule	pIC50
COc1ccc(C2=NN(CCCCOc3ccc(C4=NNC(=O)C4(C)C)c(F)c3F)C(=O)C2(C)C)n2cc(C(F)(F)F)nc12	7.00 to 8.00
COc1ccc(C2=NN(CCCCOc3ccc(C4=NNC(=O)CC4)c(F)c3F)C(=O)C2(C)C)c2[nH]c(C(F)(F)F)nc12	> 8.00

Tell me the measured pIC50 of COc1ccc(C2=NN(CCCCOc3ccc(C4=NNC(=O)C4(C)C)c(F)c3F)C(=O)C2(C)C)c2cccnc12 , please. > 8.00

Tell me the measured pIC50 of CCc1ccc2c(C3=NN(CCCCOc4ccc(C5=NNC(=O)CC5C)cc4F)C(=O)C3(C)C)ccc(OC)c2n1 (stereo not drawn) [Example 205] , please. > 8.00

Tell me the measured pIC50 of COc1ccc(C2=NN(CCCCOc3ccc(C4=NNC(=O)CC4C)c(F)c3F)C(=O)C2(C)C)c2sc(C(F)(F)F)nc12 (stereo not drawn) , please. > 8.00

Tell me the measured pIC50 of COc1ccc(C2=NN(CCCCOc3ccc(C4=NNC(=O)CC4C)c(F)c3F)C(=O)C2(C)C)n2cc(C(F)(F)F)nc12 (stereo not drawn) , please. > 8.00

Tell me the measured pIC50 of COc1ccc(C2=NN(CCCCOc3ccc(C4=NNC(=O)CC4C)c(F)c3F)C(=O)C2(C)C)c2nc(C(F)(F)F)nn12 (stereo not drawn) , please. > 8.00

Tell me the measured pIC50 of CCc1ccc2c(C3=NN(CCOc4ccc(C5=NNC(=O)CC5C)c(F)c4F)C(=O)C3(C)C)ccc(OC)c2n1 (stereo not drawn) , please. > 8.00

Tell me the measured pIC50 of COc1ccc(C2=NN(CCCCOc3ccc(C4=NNC(=O)CC4C)c(F)c3F)C(=O)C2(C)C)c2cc(C(F)(F)F)oc12 (stereo not drawn) , please. > 8.00

Tell me the measured pIC50 of COc1ccc(C2=NN(CCCCOc3ccc(C4=NNC(=O)C4(C)C)c(F)c3F)C(=O)C2(C)C)c2nc(C(F)(F)F)nn12 , please. 7.00 to 8.00

Tell me the measured pIC50 of CCc1cc2c(C3=NN(CCCCOc4ccc(C5=NNC(=O)CC5)c(F)c4F)C(=O)C3(C)C)ccc(OC)n2c1 , please. > 8.00

Tell me the measured pIC50 of COc1ccc(C2=NN(CCCCOc3ccc(C4=NNC(=O)CC4C)cc3)C(=O)C2(C)C)c2ccc(C(C)C)nc12 (stereo not drawn) , please. > 8.00

Tell me the measured pIC50 of COc1ccc(C2=NN(CCCCOc3ccc(C4=NNC(=O)CC4C)c(F)c3F)C(=O)C2(C)C)c2ccc(C)nc12 (stereo not drawn) , please. > 8.00

Tell me the measured pIC50 of CCc1ccc2c(C3=NN(CCCCOc4ccc(C5=NNC(=O)CC5)cc4OC)C(=O)C3(C)C)ccc(OC)c2n1 , please. 6.00 to 7.00

Tell me the measured pIC50 of COc1ccc(C2=NN(CCCCOc3ccc(C4=NNC(=O)CC4)c(F)c3F)C(=O)C2(C)C)n2cc(C(F)(F)F)nc12 , please. > 8.00

Tell me the measured pIC50 of COc1ccc(C2=NN(CCCCOc3ccc(C4=NNC(=O)CC4C)cc3F)C(=O)C2(C)C)c2cccnc12 (stereo not drawn) , please. > 8.00

Tell me the measured pIC50 of COc1ccc(C2=NN(CCCCOc3ccc(C4=NNC(=O)C4(C)C)c(F)c3F)C(=O)C2(C)C)c2sc(C(F)(F)F)nc12 , please. 7.00 to 8.00

Tell me the measured pIC50 of CCc1ccc2c(C3=NN(CCCCOc4ccc(C5=NNC(=O)C5(C)C)cc4)C(=O)C3(C)C)ccc(OC)c2n1 , please. 6.00 to 7.00

Tell me the measured pIC50 of COc1ccc(C2=NN(CCCCOc3ccc(C4=NNC(=O)CC4C)cc3)C(=O)C2(C)C)c2ccc(C)nc12 (stereo not drawn) , please. 7.00 to 8.00

Tell me the measured pIC50 of COc1ccc(C2=NN(CCCCOc3ccc(C4=NNC(=O)C4(C)C)c(F)c3F)C(=O)C2(C)C)c2[nH]c(C(F)(F)F)nc12 , please. 7.00 to 8.00

Tell me the measured pIC50 of CCc1ccc2c(C3=NN(CCCOc4ccc(C5=NNC(=O)CC5C)c(F)c4F)C(=O)C3(C)C)ccc(OC)c2n1 (stereo not drawn) , please. > 8.00

Recorded values, source patent US20100130738A1.
